# TEST DETAILS: chemical genetic growth profiling, strain panel (AID 1159580);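 note: tested at 20 µM; growth read once vehicle control cultures reached saturation at 30 °C; lower values mean less growth of the strain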
# SETUP CONDITIONS: S. cerevisiae deletion strains, growth OD, locus YIL073C, strain SPO22
Hit rate of the full screen: of about 5,500 compounds, about 2,000 (36%) were called active. Not shown: some 18% with an inconclusive outcome. Cut-off read from the data, not from the text of the source: active = normalized growth mostly below about 0.91 (no sharp cut-off); inconclusive = no clear call, values can overlap the other calls; inactive = mostly above about 0.92. The list shows a part of the results.
Possible outcomes: yes (active), no (inactive)

[
  {
    "COMPOUND": "CC1=CC(=O)C2=C(C)CC[C@@H]3[C@H](OC(=O)[C@H]3C)[C@@H]12",
    "ASSIGNED LABEL": "no"
  },
  {
    "COMPOUND": "CC(=O)Oc1ccc2c(c1OC(C)=O)OCC1(O)Cc3c(cc(OC(C)=O)c(OC(C)=O)c3OC(C)=O)C21 (configuration not stated)",
    "ASSIGNED LABEL": "no"
  },
  {
    "COMPOUND": "COc1c(C(C)C)oc2cc3oc(=O)ccc3cc12",
    "ASSIGNED LABEL": "no"
  },
  {
    "COMPOUND": "CN[C@@H]1C(O)[C@@H](O[C@@H]2[C@@H](O)[C@H](O[C@H]3OC(CN)=CC[C@H]3N)[C@@H](N)C[C@H]2N)OC[C@]1(C)O (some centres not stated)",
    "ASSIGNED LABEL": "no"
  },
  {
    "COMPOUND": "O=C(Cc1cccs1)NC1C(=O)N2C(C(=O)[O-])=C(C[n+]3ccccc3)CSC12 (configuration not stated)",
    "ASSIGNED LABEL": "no"
  },
  {
    "COMPOUND": "COc1cc(OC)c2ccc(=O)oc2c1",
    "ASSIGNED LABEL": "no"
  },
  {
    "COMPOUND": "CC(C)(C)NCC(O)c1cc(O)cc(O)c1 (configuration not stated)",
    "ASSIGNED LABEL": "no"
  },
  {
    "COMPOUND": "COc1ccc2ccc(=O)oc2c1",
    "ASSIGNED LABEL": "no"
  },
  {
    "COMPOUND": "CO[C@@]1(NC(=O)C(C(=O)O)c2ccc(O)cc2)C(=O)N2C(C(=O)O)=C(CSc3nnnn3C)CO[C@@H]21 (some centres not stated)",
    "ASSIGNED LABEL": "no"
  },
  {
    "COMPOUND": "CCCC(C)(COC(N)=O)COC(=O)NC(C)C (configuration not stated)",
    "ASSIGNED LABEL": "no"
  },
  {
    "COMPOUND": "COc1ccc(Cl)cc1C(=O)NCCc1ccc(S(=O)(=O)NC(=O)NC2CCCCC2)cc1",
    "ASSIGNED LABEL": "no"
  },
  {
    "COMPOUND": "CC(=O)OC1CN2CCC1CC2 (configuration not stated)",
    "ASSIGNED LABEL": "no"
  },
  {
    "COMPOUND": "CCCCCc1c2c(cc(O)c1C(=O)O)OC(=O)c1c(cc(OC)cc1C(=O)CCCC)O2",
    "ASSIGNED LABEL": "no"
  },
  {
    "COMPOUND": "CCCCOc1cc(C(=O)NCCN(CC)CC)c2ccccc2n1",
    "ASSIGNED LABEL": "no"
  },
  {
    "COMPOUND": "CCOCN(C(=O)CCl)c1c(C)cccc1CC",
    "ASSIGNED LABEL": "no"
  },
  {
    "COMPOUND": "CCCCCCCCCCCCCCCCCC(=O)OC(CC(=O)O)C[N+](C)(C)C (configuration not stated)",
    "ASSIGNED LABEL": "yes"
  },
  {
    "COMPOUND": "CC(C)c1c(O)ccc2c1CCC1C(C)(C)CCC[C@]21C (some centres not stated)",
    "ASSIGNED LABEL": "yes"
  },
  {
    "COMPOUND": "CCCCCCCCCCCC1=C(O)C(=O)C=C(O)C1=O",
    "ASSIGNED LABEL": "no"
  },
  {
    "COMPOUND": "COc1ccc2c3c1OC1C(O)CC=C4C(C2)N(C)CCC431 (configuration not stated)",
    "ASSIGNED LABEL": "no"
  },
  {
    "COMPOUND": "Oc1ccc2c(c1)OCC1(O)Cc3cc(O)c(O)cc3C21 (configuration not stated)",
    "ASSIGNED LABEL": "no"
  },
  {
    "COMPOUND": "COc1ccc2c(c1C(C)C)CCC1C(C)(C)C(=O)CCC21C (configuration not stated)",
    "ASSIGNED LABEL": "no"
  },
  {
    "COMPOUND": "NC(=O)c1ncn([C@@H]2O[C@H](CO)[C@@H](O)[C@H]2O)n1",
    "ASSIGNED LABEL": "no"
  }
]
